# system: Parkinson's disease protein 7 (PARK7/DJ1) (human, UniProt Q99497)
# Sequence (Q99497 whole entry, looked up): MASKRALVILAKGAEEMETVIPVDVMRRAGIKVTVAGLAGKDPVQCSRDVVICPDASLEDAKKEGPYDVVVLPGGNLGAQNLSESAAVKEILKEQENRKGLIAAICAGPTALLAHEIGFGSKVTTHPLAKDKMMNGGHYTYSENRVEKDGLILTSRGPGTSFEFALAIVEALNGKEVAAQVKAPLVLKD
# test.name: primary screen, percent inhibition; higher = more effect of the substance
# assay.conditions: 100 µM
Screen size: about 7,900 compounds; about 400 (5.1%) showed an effect of 50% or more. This excerpt belongs to a sample that is enriched for strong results.
Classification field: enter Met for Inhibition % values not below 20%, Not met for values below it.

Please review the following examples before continuing.
• O=C(CCl)Nc1ccc(NC(=O)c2cccs2)cc1 = Met
• C=CC(=O)N1CCOc2ccc(F)cc2C1 = Not met
• COc1ccc(C(C)(C)C)cc1S(=O)(=O)n1ccnc1C = Not met
• COc1cc(NC(=O)CCl)c(Cl)cc1C(=O)O = Not met
• Cc1ccc(S(=O)(=O)N2CCCCC2C2OCCO2)cc1 (stereo not drawn) = Not met
• C#CCN(c1cnc(C#N)cn1)C1CCCC1 = Not met

Check the entry CCc1nc(C)cn1S(=O)(=O)c1cc(Cl)ccc1OC : does Inhibition % equal or exceed 20%? Not met

Check the entry OB(O)c1ccc(OCC2CCCCO2)cc1 (stereo not drawn) : does Inhibition % equal or exceed 20%? Met

Check the entry Cc1noc2ncc(S(=O)(=O)OCC(F)(F)F)cc12 : does Inhibition % equal or exceed 20%? Not met

----------
# system: Parkinson's disease protein 7 (PARK7/DJ1) (human, UniProt Q99497)
# test.name: primary screen, percent inhibition; read as competition with a fluorescent probe by fluorescence polarization; higher = more effect of the substance
# assay.conditions: 100 µM
In all, about 7,900 compounds went through this assay and about 400 (5.1%) showed an effect of 50% or more. The sample holds strong results, similar compounds and a random draw of the others, so the mix is not that of the screen.
measured.endpoint: Inhibition %
State the value, then name its unit.

Completed entries (count: 5):
• N#CC(=Cc1ccc(N2CCOCC2)cc1)C(N)=O = 12.7%
• Cc1noc(C)c1Cn1c(-c2ccccc2)noc1=O = 14.3%
• O=C(CCl)NCC(=O)c1ccccc1 = 4.23%
• Cl.O=C(CCl)Nc1ccncc1 = 14.4%
• Cc1cccc(-n2nnnc2SC2CC(C)OC2=O)c1 (stereo not drawn) = 3.51%

Provide each entry's Inhibition % from the list below.
1. Cc1ccc(NC(=O)C(C#N)=Cc2cn(C)cn2)c(C)c1
2. CN(C)Cc1ccc(B2OC(C)(C)C(C)(C)O2)s1
3. O=c1[nH]nc(-c2ccco2)o1
4. O=C(CCl)Nc1ccc(-c2ccccc2)cc1
5. CC(C)(C)OC(=O)N1CCOc2cccc(B3OC(C)(C)C(C)(C)O3)c2C1
6. O=C(CCl)c1ccc(O)c(O)c1

1. 10.3%
2. 5.59%
3. 50.5%
4. 4.3%
5. 3.79%
6. 75.1%

Provide each entry's Inhibition % from the list below.
1. NC(=O)c1ccsc1NC(=O)CCl
2. C=CC(=O)NCC1CCCOC1c1ccc(C)cc1 (stereo not drawn)
3. O=C(C=Cc1cnc2ccccc2n1)N1CCCCC1

84.7%
9.55%
9.55%

Provide each entry's Inhibition % from the list below.
1. CCC1(c2ccccc2)NC(=O)N(NC(=O)CCl)C1=O (stereo not drawn)
2. Cn1c(SC2CCOC2=O)nnc1-c1ccccc1 (stereo not drawn)
3. O=c1[nH]nc(-c2cccs2)o1
4. O=C(CCl)NNC(=O)c1ccccc1

1. 6.48%
2. 12.6%
3. 12.1%
4. -3.2%

Provide each entry's Inhibition % from the list below.
1. O=S(=O)(F)CCn1nnc(-c2ccccc2)n1
2. O=S(=O)(F)CCSc1nnc2ccccn12
3. CC(=O)Nc1ccc(OC(=O)N2CCCC2)cc1

["35.7%", "53.9%", "8.48%"]
